Each entry below carries its recorded Kd.
- assayTarget: CCL21 (Homo sapiens, UniProt O00585)
- Construct: Our previous NMR studies defined the 3D structure of full-length CCL21; made in house
- Sequence (O00585 24-134): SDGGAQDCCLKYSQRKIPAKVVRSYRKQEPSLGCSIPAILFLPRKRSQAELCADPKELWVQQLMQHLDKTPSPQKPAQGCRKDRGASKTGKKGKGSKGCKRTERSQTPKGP
- procedureText: 15N-1H HSQC NMR titration of U-15N CCL21 with CCR7 N-terminal peptides; Kd by nonlinear fitting of chemical shift perturbations
- Assay type: binding
- testContext: 100 μM U-15N CCL21 titrated with peptide; NMR buffer 25 mM deuterated MES, 10% D2O, 0.2% NaN3, pH 6.0, 25 °C; fit of all CCL21 residues with significant chemical shift perturbations (11–30 sY17: only residues that did not broaden beyond detection); ± CI at 95% confidence level
- Protocol: NMR spectroscopic data were collected at the NMR facility at the Medical College of Wisconsin on a Bruker Avance 600 MHz spectrometer equipped with ^1H/^13C/^15N Cryoprobe® at 25 °C. Chemical shift assignments for CCR7 1–30 C24A (H, N, C, C^α, and most side chain carbons) were determined by standard techniques using 1.05 mM U-^15N/^13C labeled CCR7 1–30 C24A in NMR buffer (25 mM deuterated MES, 10% D2O, 0.2% NaN3, pH 6.0). […]
No end group written: not given here.
measuredParameter: Kd (µM)

substance | assayTarget | readoutUnit | numericResult
TDDYIGD-NH2 [CCR7 5–11] | CCL21 (Homo sapiens, UniProt O00585) | µM | 700
DNTTVDYTLFESLASKKDVR-NH2 [CCR7 11–30] | CCL21 (Homo sapiens, UniProt O00585) | µM | 6800
